- target.system: Proteasome subunit beta (Trypanosoma cruzi) (UniProt O96673)
- Sequence (O96673 as listed by the source): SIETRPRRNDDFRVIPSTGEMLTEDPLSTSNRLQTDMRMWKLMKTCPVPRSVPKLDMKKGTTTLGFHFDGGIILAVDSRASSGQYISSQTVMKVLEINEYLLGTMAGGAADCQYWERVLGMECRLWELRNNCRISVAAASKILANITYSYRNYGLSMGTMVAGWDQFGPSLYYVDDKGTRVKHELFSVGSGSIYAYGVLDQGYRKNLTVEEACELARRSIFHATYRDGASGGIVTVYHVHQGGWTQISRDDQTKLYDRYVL
- assay.summary: Trypanosoma cruzi proteasome chymotrypsin-like activity (TcProtChymo) assay.
- Format: functional
- Parameters: scale not given: in the data most compounds retested in dose-response had high values
- condition.context: 9.37 µM
// reported Percent Effect for each item listed

# compound, target.system, Percent Effect / %
data = [
    ("c1ccc(-c2ncc(CNC3CCc4ncnn4C3)cn2)cc1 (stereo unspecified)", "Proteasome subunit beta (Trypanosoma cruzi) (UniProt O96673)", 3.26),
    ("COc1ncccc1NC(=O)NCC1CCS(=O)(=O)C1 (stereo unspecified)", "Proteasome subunit beta (Trypanosoma cruzi) (UniProt O96673)", 4.22),
    ("O=S1(=O)N=C(SCc2ccc(Cl)cc2)Nc2ccc(F)cc21", "Proteasome subunit beta (Trypanosoma cruzi) (UniProt O96673)", 13.8),
    ("Cc1ccc(F)cc1S(=O)(=O)N(C)CC(N)=O", "Proteasome subunit beta (Trypanosoma cruzi) (UniProt O96673)", 14.8),
    ("Cc1cccc(-n2c(C)cc(C(=O)N3CCn4c(C)nnc4C3)c2C)c1", "Proteasome subunit beta (Trypanosoma cruzi) (UniProt O96673)", 7.19),
    ("COc1ccc(NC(=O)Cn2nc(C)ccc2=O)cc1OC", "Proteasome subunit beta (Trypanosoma cruzi) (UniProt O96673)", 7.39),
]

###

// reported Percent Effect for each item listed
- target.system: Chromo domain-containing protein 1 (Saccharomyces cerevisiae (strain ATCC 204508 / S288c) (Baker's yeast)) (UniProt P32657)
- Sequence (P32657 whole entry, the tested form may be a part): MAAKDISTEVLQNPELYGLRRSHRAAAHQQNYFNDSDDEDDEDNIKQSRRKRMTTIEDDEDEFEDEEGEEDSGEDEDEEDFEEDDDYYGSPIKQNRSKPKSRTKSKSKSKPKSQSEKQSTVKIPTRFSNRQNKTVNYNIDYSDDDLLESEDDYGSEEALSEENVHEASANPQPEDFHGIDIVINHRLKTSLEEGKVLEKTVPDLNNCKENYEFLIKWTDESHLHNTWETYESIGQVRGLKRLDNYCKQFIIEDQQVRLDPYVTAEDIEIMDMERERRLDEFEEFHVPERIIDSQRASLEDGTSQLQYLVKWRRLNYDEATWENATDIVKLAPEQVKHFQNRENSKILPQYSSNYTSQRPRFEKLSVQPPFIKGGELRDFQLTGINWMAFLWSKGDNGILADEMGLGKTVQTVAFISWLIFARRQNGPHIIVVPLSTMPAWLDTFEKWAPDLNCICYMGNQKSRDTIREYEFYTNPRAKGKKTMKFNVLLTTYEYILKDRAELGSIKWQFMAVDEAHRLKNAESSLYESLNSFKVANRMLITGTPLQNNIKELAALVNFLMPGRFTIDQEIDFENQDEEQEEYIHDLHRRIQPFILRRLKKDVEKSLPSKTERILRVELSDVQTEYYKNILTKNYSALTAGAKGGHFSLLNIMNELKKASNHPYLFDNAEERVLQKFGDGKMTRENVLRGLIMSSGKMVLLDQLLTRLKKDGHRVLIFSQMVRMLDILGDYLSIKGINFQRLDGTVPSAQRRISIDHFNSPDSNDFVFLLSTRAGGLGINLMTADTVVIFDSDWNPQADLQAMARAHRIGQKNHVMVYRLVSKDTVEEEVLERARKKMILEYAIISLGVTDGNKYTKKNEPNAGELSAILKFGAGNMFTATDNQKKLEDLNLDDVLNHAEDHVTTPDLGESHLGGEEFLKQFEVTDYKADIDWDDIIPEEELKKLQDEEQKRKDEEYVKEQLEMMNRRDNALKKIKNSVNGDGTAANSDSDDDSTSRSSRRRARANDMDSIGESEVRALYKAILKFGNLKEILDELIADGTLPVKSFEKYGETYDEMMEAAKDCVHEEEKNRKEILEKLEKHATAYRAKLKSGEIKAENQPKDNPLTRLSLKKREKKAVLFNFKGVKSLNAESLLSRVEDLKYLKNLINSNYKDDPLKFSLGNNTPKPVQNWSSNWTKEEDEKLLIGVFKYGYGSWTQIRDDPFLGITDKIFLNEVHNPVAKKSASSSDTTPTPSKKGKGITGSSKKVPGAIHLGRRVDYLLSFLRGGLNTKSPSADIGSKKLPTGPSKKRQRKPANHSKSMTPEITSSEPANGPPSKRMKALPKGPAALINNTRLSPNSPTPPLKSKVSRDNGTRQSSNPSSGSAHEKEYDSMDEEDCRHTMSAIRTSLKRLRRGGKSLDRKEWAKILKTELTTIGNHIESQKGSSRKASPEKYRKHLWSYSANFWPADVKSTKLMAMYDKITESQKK
- assay.summary: ScCHD-1 Enzyme Inhibition Assay
- Type: functional
- Design: scale not given: in the data most compounds retested in dose-response had high values
- condition.context: 30 µM
recorded.endpoint: Percent Effect (%)

# compound, recorded.endpoint, units.symbol, test.result
measured = [
    ("Cc1cccc(C(=O)N2C[C@@H](OCc3cccnc3)[C@H]3OCCC[C@@H]32)n1", "Percent Effect", "%", 112),
    ("COc1cccc(COCC(=O)N2CCN(CC(C)(C)O)CC2)c1", "Percent Effect", "%", -5.7),
    ("COc1ccc(-n2nnc(C(=O)NC(C)C)c2C2CC2)cc1", "Percent Effect", "%", -0.372),
    ("Cc1nc(C(C)(C)NC(=O)Nc2cccc(C#N)c2)no1", "Percent Effect", "%", -4.58),
    ("Cc1cc(C2CCCN2CCCc2nc3ccccc3o2)on1 (stereo unspecified)", "Percent Effect", "%", -3.04),
    ("COc1cccc(CN(C)C(=O)CN2CCN(c3nccn3C)CC2)c1", "Percent Effect", "%", -3.45),
]

###

- target.system: Proteasome subunit beta (Trypanosoma cruzi) (UniProt O96673)
- assay.summary: Trypanosoma cruzi proteasome chymotrypsin-like activity (TcProtChymo) assay.
- Type: functional
- Parameters: scale not given: in the data most compounds retested in dose-response had high values
- condition.context: 9.37 µM
// reported Percent Effect for each item listed

# compound, units.symbol, Percent Effect
measured = [
    ("COc1ccc(C[C@H]2CN(C(=O)CN(C)C)CC[C@H]2OC)cc1", "%", -4.21),
    ("CS(=O)(=O)CCC(=O)N1CCC2(CCCN(C3CCOCC3)C2=O)C1 (configuration not stated)", "%", 12.6),
    ("CCCc1nc(CN2CCCC2Cn2cncn2)cs1 (configuration not stated)", "%", 5.98),
    ("CC(NC(=O)N(C)Cc1ccsc1)c1ccc2c(c1)NC(=O)CO2 (configuration not stated)", "%", 8.52),
    ("CN(C)C1CCN(C(=O)NCc2ccccc2Cn2cncn2)CC1", "%", 12.2),
    ("Cc1cnc(C(=O)N2CCc3ncnc(C)c3CC2)cn1", "%", 15.8),
    ("CCC(CNC(=O)c1ccc(=O)[nH]n1)N1CCc2ccccc2C1 (configuration not stated)", "%", 17.9),
    ("Cc1nn(C)c(C)c1NC(=O)CN1CCc2c(nc(C3CC3)n2C)C1", "%", 4.14),
    ("CC1CCN(CCNC(=O)c2cncnc2C(C)C)CC1", "%", 11.1),
    ("Cc1nc(-c2ccccc2F)sc1C(=O)N1CCN(C)CC1", "%", 18.5),
    ("CC(=O)N1CCC(c2cncc(Oc3ccccc3)n2)CC1", "%", 8.19),
    ("CN1CC(=O)N(c2cnn(C)c2)CC12CCN(C(=O)c1ccsc1)C2 (configuration not stated)", "%", 6.27),
]

Just for reference, ChEMBL document CHEMBL3988442 is where these values come from.
